- target under test: sEH (Homo sapiens)
- Sequence (P34913 whole entry): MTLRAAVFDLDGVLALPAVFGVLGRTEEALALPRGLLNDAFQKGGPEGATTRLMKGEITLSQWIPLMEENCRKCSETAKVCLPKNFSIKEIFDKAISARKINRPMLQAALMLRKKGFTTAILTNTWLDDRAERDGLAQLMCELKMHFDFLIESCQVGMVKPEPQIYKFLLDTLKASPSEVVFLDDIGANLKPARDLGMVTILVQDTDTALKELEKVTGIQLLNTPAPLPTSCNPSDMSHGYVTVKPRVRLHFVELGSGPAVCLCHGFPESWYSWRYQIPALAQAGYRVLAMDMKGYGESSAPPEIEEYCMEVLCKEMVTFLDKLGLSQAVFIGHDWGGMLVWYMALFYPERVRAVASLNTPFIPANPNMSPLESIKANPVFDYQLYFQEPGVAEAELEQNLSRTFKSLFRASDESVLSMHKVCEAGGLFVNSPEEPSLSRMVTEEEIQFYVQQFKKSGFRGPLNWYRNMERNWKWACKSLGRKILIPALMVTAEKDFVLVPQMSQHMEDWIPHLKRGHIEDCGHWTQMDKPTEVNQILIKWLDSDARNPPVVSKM
- protocol text: sEH inhibitory activity
- applied conditions: read-out: Inhibition of compounds against sEH, IC50; PHOME 10 μM, 20 min, 37 °C, pH 7.4
pIC50: −log10 of the molar value.
readout type: pIC50

compound | numeric readout
COC(C[C@@H](C)C1=C2C[C@H](O)[C@H]3[C@@]4(C)CCC(=O)C(C)(C)[C@@H]4CC[C@]3(C)[C@@]2(C)CC1)OC | 4.83

(A) CC1(C)O[C@@H]1[C@@H](O)C[C@](C)(O)C1=C2C[C@H](O)[C@H]3[C@@]4(C)CCC(=O)C(C)(C)[C@@H]4CC[C@]3(C)[C@@]2(C)CC1=O [Compound 19, 20-hydroxy alisol C]
(B) CCOC(C)(C)[C@H](O)[C@@H](O)C[C@@H](C)C1=C2C[C@H](O)[C@H]3[C@@]4(C)CCC(=O)C(C)(C)[C@@H]4CC[C@]3(C)[C@@]2(C)CC1
Ask: Smaller pIC50 value, A vs B ? Please identify the chosen entry by its label.
Reply: A
(A: 4.65, B: 5.02)

====

- target under test: sEH (Homo sapiens)
- protocol text: sEH inhibitory activity
- applied conditions: compound at 50 μM; PHOME 10 μM, 20 min, 37 °C, pH 7.4
readout type: Inhibition of compounds against sEH, 50 μM (%)

compound | quantity unit | numeric readout
COC(=O)C[C@@H](C)C1=C2[C@H](O)C[C@H]3[C@@]4(C)CCC(=O)C(C)(C)[C@@H]4CC[C@]3(C)[C@@]2(C)C[C@@H]1OC [Compound 17, alismanin E] | % | 49.44

(P) CC(C)(O)C1O[C@](C)(C2=C3C[C@H](O)[C@H]4[C@@]5(C)CCC(=O)C(C)(C)[C@@H]5CC[C@]4(C)[C@@]3(C)CC2=O)CC1O (stereo partly drawn) [Compound 7, alismanol O]
(Q) C=C(C)[C@@H](O)[C@@H](O)C[C@@H](C)C1=C2CC[C@H]3[C@@]4(C)CCC(=O)C(C)(C)[C@@H]4CC[C@]3(C)[C@@]2(C)CC1 [Compound 4, 11-deoxy-25-anhydro alisol E]
Ask: Smaller Inhibition of compounds against sEH, 50 μM (%) value, P vs Q ? Please identify the chosen entry by its label.
Reply: P
(P: 24.45%, Q: 71.21%)

====

- target under test: sEH (Homo sapiens)
- protocol text: sEH inhibitory activity
- applied conditions: compound at 50 μM; PHOME 10 μM, 20 min, 37 °C, pH 7.4
readout type: Inhibition of compounds against sEH, 50 μM (%)

Below are worked cases with known answers.
compound | target under test | numeric readout
C[C@@H]1C[C@@H]([C@@H](O)C(C)(C)O)O[C@H]2C[C@@]3(C)C(=C12)C[C@H](O)[C@H]1[C@@]2(C)CCC(=O)C(C)(C)[C@@H]2CC[C@@]13C | sEH (Homo sapiens) | 18.30
CC(CC(O)C(=O)C(C)(C)O)C1=C2CC(O)C3C4(C)CCC(=O)C(C)(C)C4CC(O)C3(C)C2(C)CC1 (stereo not drawn) [Compound 10, 7α-hydroxy-24-oxo alisol A] | sEH (Homo sapiens) | 18.64
C=C(C)[C@@H](O)[C@@H]1C[C@@H](C)[C@@]2(CC[C@@]3(C)C2=C[C@H](OC)[C@H]2[C@@]4(C)CCC(=O)C(C)(C)[C@@H]4CC[C@@]23C)O1 | sEH (Homo sapiens) | 71.6
CC(CC(O)C(O)C(C)(C)O)C1=C2C(O)C(O)C3C4(C)CCC(=O)C(C)(C)C4CC(O)C3(C)C2(C)CC1 (stereo not drawn) [Compound 8, 7α,12α-dihydroxyalisol A] | sEH (Homo sapiens) | 44.42
CC(C)[C@@H](O)C[C@@H](C)C1=C2C[C@H](O)[C@H]3[C@@]4(C)CCC(=O)C(C)(C)[C@@H]4CC[C@]3(C)[C@@]2(C)CC1 | sEH (Homo sapiens) | 75.31
CC(=O)O[C@H]([C@@H]1C[C@@H](C)C2=C3[C@H](O)C[C@H]4[C@@]5(C)CCC(=O)C(C)(C)[C@@H]5CC[C@]4(C)[C@@]3(C)C[C@@H]2O1)C(C)(C)O [Compound 21, 11-deoxy-12β-hydroxy alisol F 24-acetate] | sEH (Homo sapiens) | 39.33
CCOC(C)(C)[C@H](O)[C@@H](O)C[C@@H](C)C1=C2C[C@H](O)[C@H]3[C@@]4(C)CCC(=O)C(C)(C)[C@@H]4CC[C@]3(C)[C@@]2(C)CC1 | sEH (Homo sapiens) | 78.66
C=C(C)[C@H](O)[C@@H](O)C[C@@H](C)C1=C2C=C[C@H]3[C@@]4(C)CCC(=O)C(C)(C)[C@@H]4CC[C@]3(C)[C@@]2(C)CC1=O | sEH (Homo sapiens) | 44.97

(a) COC1CC2(C)C(=C1C(C)CC(O)C(OC(C)=O)C(C)(C)O)C(O)CC1C3(C)CCC(=O)C(C)(C)C3CCC12C (centres unmarked)
(b) COC(C[C@@H](C)C1=C2C[C@H](O)[C@H]3[C@@]4(C)CCC(=O)C(C)(C)[C@@H]4CC[C@]3(C)[C@@]2(C)CC1)OC
Ask: Smaller Inhibition of compounds against sEH, 50 μM (%) value, a vs b ? Please identify the chosen entry by its label.
Reply: a
